// provenance: ChEMBL document CHEMBL1201862

# Tested on: IGROV-1
# experimental protocol: NCI tumour cell line growth inhibition, 48 h
Activity calls are given as the source filed them. No stated cut-off is given here; in the data, active = GI50 up to about 1.1 µM and inactive = higher.
metric name: GI50

These solved cases illustrate the format of a correct answer.
molecule: CC(C)C1CC=NN1C(=O)OC(C)(C)C (stereo not drawn)
target or test system: IGROV-1
metric name: GI50
result: > 100 µM (inactive)
//
molecule: O=c1[nH]c2cc([N+](=O)[O-])ccc2nc1/C(=N\NO)C(O)c1ccc([N+](=O)[O-])cc1 (stereo not drawn)
target or test system: IGROV-1
metric name: GI50
result: > 100 µM (inactive)
//
molecule: O=NN(CCCl)C(=O)N[C@H]1CC[C@H](CC(=O)O)CC1
target or test system: IGROV-1
metric name: GI50
result: > 100 µM (inactive)
//
molecule: COP(=O)(OC)C(NC=O)P(=O)(OC)OC
target or test system: IGROV-1
metric name: GI50
result: > 100 µM (inactive)
//
molecule: CC[C@H]1C=CCC[C@@]2(C[C@@H]3CC[C@H]4[C@@H](C(=O)OCCCCCCCCCCCCCCCC(=O)N(CCCNC(C)=O)C[C@H](CCNC(C)=O)OC(C)=O)[C@@]5(CCC[C@@H](C)O5)NC(=[N+]34)N2)O1
target or test system: IGROV-1
metric name: GI50
result: 1.31 µM (inactive)
//
molecule: COc1ccc(C(=O)/C=C/c2ccc(OCC#N)cc2)cc1OC
target or test system: IGROV-1
metric name: GI50
result: 30.5 µM (inactive)

[Q] # GI50 lookup, item CC1=C(C)C(=O)C(C2=CC(=O)C=CC2=O)=C(C2=CC(=O)C=CC2=O)C1=O
[A] 21.4 µM (inactive)

[Q] What do you have for C=C1C2CC(OC(C)=O)C3(C)C(c4ccoc4)OC(=O)[C@@H](O)[C@]13OC1C[C@H](OC(C)=O)C(C)(C)[C@H](C(O)C(=O)OC)[C@]12C (stereo partly drawn) ?
[A] > 100 µM (inactive)

* * *

Reported values of GI50 for individual entries
# Test system: A549
# experimental protocol: NCI tumour cell line growth inhibition, 48 h
Activity calls are given as the source filed them. Cut-off read from the data, not from the text of the source: active = GI50 up to about 1.1 µM and inactive = higher.

molecule: CCc1ccc(CCN2CCCCC2)nc1
GI50: > 100 µM (inactive)
//
molecule: COc1cc2c(cc1OCCCCOc1cc3nc(C)nc(Cl)c3cc1OC)N=C[C@@H]1CCCN1C2=O
GI50: 2.79 µM (inactive)

[Q] # GI50 lookup, item O=c1cccc2n1CC1CNC[C@H]2C1 [CYTISINICLINE]
[A] > 100 µM (inactive)

[Q] What do you have for C/C(CC(=O)Nc1cc(C)ccc1C)=N\NC(=O)c1ccncc1 ?
[A] > 100 µM (inactive)

[Q] What do you have for NC(=S)N1N=C2c3ccccc3CCC[C@H]2[C@@H]1c1ccccc1 ?
[A] 1.52 µM (inactive)

[Q] What do you have for COc1cc(NS(C)(=O)=O)ccc1Nc1cc(C)nc2ccc3[nH]ccc3c12 ?
[A] > 100 µM (inactive)

* * *

# System: A549
# experimental protocol: NCI tumour cell line growth inhibition, 48 h
Active and inactive are the calls of the source. Cut-off read from the data, not from the text of the source: active = GI50 up to about 1.1 µM and inactive = higher.
metric name: GI50

[Q] # GI50 lookup, item O=C(Nc1ccccc1)N1CCNC1=S
[A] > 100 µM (inactive)

[Q] What do you have for N#CC(=S)Nc1cccc(Cl)c1 ?
[A] 23.8 µM (inactive)

[Q] What do you have for NC(=O)OCC(COc1ccc(Cl)cc1)OC(=O)c1ccccc1Cl (stereo unspecified) ?
[A] 27.8 µM (inactive)

[Q] What do you have for CC1=CCC([C@@](C)(O)CCCC(C)(C)N=C=S)CC1 (stereo partly specified) ?
[A] 17.6 µM (inactive)

[Q] What do you have for N#Cc1c(-c2ccc(Cl)c(Cl)c2)c(-c2ccc(Cl)c(Cl)c2)nn(CC(=O)O)c1=O ?
[A] 87.7 µM (inactive)

[Q] What do you have for O=[N+]([O-])C1=Cc2cc(Cl)ccc2OC1c1cccc2ccccc12 (stereo unspecified) ?
[A] 1.7 µM (inactive)

* * *

# Test system: OVCAR-8
# experimental protocol: NCI tumour cell line growth inhibition, 48 h
The source made the active and inactive calls. Cut-off read from the data, not from the text of the source: active = GI50 up to about 1.1 µM and inactive = higher.
Reported values of GI50 for individual entries

These solved cases illustrate the format of a correct answer.
compound: CCOP(=O)(/C=C/n1cc(C)c(=O)[nH]c1=O)OCC
result: > 100 µM (inactive)
--
compound: Cc1cccc(NC(=S)NNC(=O)c2cc(-c3ccccc3)nc3ccccc23)c1
result: 39.8 µM (inactive)
--
compound: O=C(c1ccccc1)c1ccc(N2C(=O)/C(=C/c3cccc([N+](=O)[O-])c3)N=C2c2ccccc2)c(N2C(=O)/C(=C/c3cccc([N+](=O)[O-])c3)N=C2c2ccccc2)c1
result: 42.5 µM (inactive)
--
compound: CC12CC3CC/C(=N\O)C(C1)C3(N1CCOCC1)C/C2=N/O (stereo not given)
result: > 100 µM (inactive)

[Q] # GI50 lookup, item CC(=O)Nc1ccc(OC2=CCN(C)CC2)cc1
[A] > 100 µM (inactive)

* * *

# Tested on: SNB-75
# experimental protocol: NCI tumour cell line growth inhibition, 48 h
Active and inactive are the calls of the source. Rule as the data show it: active = GI50 up to about 1.1 µM and inactive = higher.
Your response should consist of one outcome taken from TRUE for active, FALSE for inactive

compound: O=C1/C(=C\c2c(-c3ccccc3)[nH]n(-c3ccccc3)c2=O)C(c2ccccc2)=NN1c1ccccc1
target or test system: SNB-75
assigned class: FALSE

compound: C=CCc1cccc2cc(C(=O)NC3CCCCC3)c(=N)oc12
target or test system: SNB-75
assigned class: FALSE

[Q] Write down the call the test reported for this compound. Item: C=C1C(=O)[C@@]23CC[C@@H]4[C@@]5(C)CCC[C@@]4(OC5=O)C2(C)CC[C@]1(OC)C3 (some centres undefined)
[A] FALSE

[Q] What do you have for COc1cc(/C=C\c2ccc(Cl)cc2)cc(OC)c1OC ?
[A] TRUE

[Q] What do you have for COc1ccc(P2(=S)Oc3ccc(C(c4ccccc4)(c4ccccc4)c4ccccc4)cc3O2)cc1 (centres undefined) ?
[A] FALSE

[Q] What do you have for CCSC1=N/C(=C\c2ccco2)C(NN)=N1 ?
[A] FALSE

[Q] What do you have for c1ccc2c(c1)nc1n2CNC1 ?
[A] FALSE

[Q] What do you have for Cc1cc(Cl)ccc1NC(=O)/C(=N\NC(C)(C)C)C(C#N)c1nc(-c2ccc([N+](=O)[O-])cc2)cs1 (centres undefined) ?
[A] FALSE

[Q] What do you have for COC1=C(C)C(=O)C2C(C1=O)C(c1ccc(OC)c(OC)c1)[C@H]2C (some centres undefined) ?
[A] FALSE

[Q] What do you have for COc1ccc(C(CC2(c3ccc(OC)cc3)SCCCS2)NC(C)=O)cc1 (centres undefined) ?
[A] FALSE

* * *

# System: U-251
# experimental protocol: NCI tumour cell line growth inhibition, 48 h
Calls of active or inactive are those of the source. Cut-off read from the data, not from the text of the source: active = GI50 up to about 1.1 µM and inactive = higher.
metric name: GI50

molecule: COc1ccc(C2=C(N)c3ccccc3C2=O)cc1
GI50: 33.9 µM (inactive)
--
molecule: Cc1cnc2c(c1)C(=O)N(c1ccc(Br)cc1)S2(=O)=O
GI50: > 100 µM (inactive)

[Q] # GI50 lookup, item O=C1NC(=O)C(=O)C(c2nc3ccccc3s2)C1=O
[A] > 100 µM (inactive)

[Q] What do you have for CCCCCCCCNC(=O)C1=C(C)NC(C)=C(C(=O)NCCCCCCCC)C1 ?
[A] 94.4 µM (inactive)

[Q] What do you have for CCC(CC)n1cc(C(=O)NC(=O)NCCCCCOC(=O)CCCCCCCCCCC(=O)OCCCCCNC(=O)NC(=O)c2cn(C(CC)CC)c(=O)[nH]c2=O)c(=O)[nH]c1=O ?
[A] 88.3 µM (inactive)

[Q] What do you have for CCOC(=O)c1c(N)n(-c2ccccc2)c(=O)n(-c2ccccc2)c1=O ?
[A] > 100 µM (inactive)

[Q] What do you have for [O-][S+]1Nc2c(Cl)cc(Cl)c(Cl)c2S1 (stereo not given) ?
[A] 38.6 µM (inactive)

[Q] What do you have for COc1cc(/C=N/c2ccc(S(N)(=O)=O)cc2)cc(OC)c1 ?
[A] > 50 µM (inactive)

[Q] What do you have for NS(=O)(=O)c1nnc(NC(=O)Nc2ccc(Cl)c(Cl)c2)s1 ?
[A] 29.4 µM (inactive)

[Q] What do you have for CCC(C)(C)c1ccc(Oc2cccc(C(=O)O)c2)cc1 ?
[A] 41.8 µM (inactive)

* * *

Reported values of GI50 for individual entries
# Test system: MDA-MB-435
# experimental protocol: NCI tumour cell line growth inhibition, 48 h
Active and inactive are the calls of the source. No stated cut-off is given here; in the data, active = GI50 up to about 1.1 µM and inactive = higher.

[Q] # GI50 lookup, item COC(=O)C1=C(O)C(C(=O)OC)[C@]2(O)[C@H](C(=O)OC)[C@H]1C[C@@H](c1ccc(F)cc1)[C@H]2C(=O)OC (stereo partly specified)
[A] 5.43 µM (inactive)

[Q] What do you have for COc1cc2c(cc1OCCCCOc1cc3nc(C)nc(Cl)c3cc1OC)N=C[C@@H]1CCCN1C2=O ?
[A] 1.62 µM (inactive)

[Q] What do you have for c1ccc2c(c1)CN1CCCC1CN2 (stereo unspecified) ?
[A] > 100 µM (inactive)

[Q] What do you have for COc1cc(/C=N/N=C2NCCN2)ccc1O ?
[A] > 100 µM (inactive)

[Q] What do you have for C=C(C)C1Cc2c(cc(O)c3c(=O)c4c(oc23)C(O)Oc2cc(OC)c(OC)cc2-4)O1 (stereo unspecified) ?
[A] > 10 µM (inactive)

[Q] What do you have for COc1ccc(C2=C(N)c3ccccc3C2=O)cc1 ?
[A] > 100 µM (inactive)
